Where do the numbers come from? From PubChem BioAssay (NCI).

- Test system: SF-268 CNS
- experimental protocol: NCI-60 one-dose screen, 48 h (100 = growth as untreated, 0 = no growth, -100 = all killed)
- assay context: 10 µM unless noted
The panel holds about 83,000 compounds, 20% with a hit somewhere; the sample as a whole holds those more often.
# Lookup of reported growth keyed by entry
# value in %; strip the unit string

{"columns": ["compound", "unit of measurement", "growth"],
 "data": [
  ["COc1ccc(-c2cn[nH]c2-c2cc(OC)c3c(c2)OCO3)cc1", "%", 37.6],
  ["Cc1ccc(C2=NN(c3ccc(S(=O)(=O)NC(=O)NCc4ccccc4)cc3)C(c3ccc(N(C)C)cc3)C2)c(C)c1 (configuration not stated)", "%", 50.8],
  ["Cc1cc(C(=O)CSc2nc3ccccc3c(=O)[nH]2)c(C)n1C", "%", 110],
  ["COc1cccc2cc(-c3cc4ccccc4[nH]3)c(=NC(=O)c3ccc(Cl)cc3)oc12", "%", 53.5],
  ["CC(=O)C1CCC(C)=CC1=O (configuration not stated)", "%", 99.1],
  ["CC/C=C\\C[C@H]1C/C=C2/C(=O)C(Cl)=C[C@@H]2C/C=C\\CCCC(=O)O1", "%", -55.4]
]}

What value of growth has been recorded for this entry: CCC1CCc2nc3sc(C(=O)Nc4ccccc4C)c(N)c3cc2C1 (configuration not stated) 49.9

Fill in the blank: the reported growth of "COc1ccc2c(c1)NC(=O)CN2c1nc(NC2CC2)nc2ccccc12" is ____. 21.9

Entry Nc1c(C(=O)Nc2cccc([N+](=O)[O-])c2)sc2nc3c(cc12)C(O)CCC3 (configuration not stated) has what growth? 60.5

----------
- System: NCI-H23 lung
- experimental protocol: NCI-60 one-dose screen, 48 h
- assay context: 10 µM unless noted
Compounds without any hit were thinned out: in the full panel of roughly 83,000, 20% have a hit. Activity calls are given as the source filed them. Rule for the calls: active = growth percent below 10; inactive = the rest.
One label from this list, please: active, inactive

{"columns": ["compound", "class"],
 "data": [
  ["CC1Cc2c(N(C)C)ncnc2N(C)c2ccc(Cl)cc21 (stereo unspecified)", "inactive"],
  ["CCN(Cc1ccc(CN(CC)C(=O)C(Br)Br)cc1)C(=O)C(Br)Br", "inactive"]
]}

Which outcome was assigned to "Cc1ccc2nc(-c3c(CCCO)noc3N)[nH]c(=O)c2c1" in this test? inactive

Called result for "CC(=O)n1cc([C@H]2CC[C@H](c3cn(C(C)=O)c4ccccc34)c3c2[nH]c2ccccc32)c2ccccc21" inactive

// return assay outcome for "CSc1ccccc1C#C/C=C\C#Cc1ccccc1N1CCCC1=O" inactive

----------
- System: SNB-19 CNS
- experimental protocol: NCI-60 one-dose screen, 48 h (100 = growth as untreated, 0 = no growth, -100 = all killed)
- assay context: 10 µM unless noted
Compounds without any hit were thinned out: in the full panel of roughly 83,000, 20% have a hit.
property name: growth (%)
Give your result in % as a bare value.

{"columns": ["compound", "growth (%)"],
 "data": [
  ["N#Cc1c(NC(=O)c2ccc([N+](=O)[O-])o2)[n+]([O-])c2cc(F)c(F)cc2[n+]1[O-]", 121],
  ["Cc1ccc2nc(SCn3nnc4ccccc4c3=O)[nH]c2c1", 108],
  ["CCn1cc(C(=O)O)c(=O)c2cc(F)c(N3CCN(S(=O)(=O)c4c(C)cc(C)cc4C)CC3)cc21", 89.9],
  ["C=CCOc1ccc(/C(O)=C2\\C(=O)C(=O)N(c3nccs3)C2c2ccccc2F)cc1 (stereo not given)", 102],
  ["O=C(O)c1cccc([N+](=O)[O-])c1/C=C/c1ccccc1", 101]
]}

Field: next compound
GET /values?readout=growth&item= "COc1ncc(-c2ccc3ncnc(Nc4cccc(Cl)c4)c3c2)cc1NS(=O)(=O)CCN1CCOCC1" 21.2
